Please provide measured Ki for the entries that follow.
Biological target: 5-hydroxytryptamine receptor 1A (Rattus norvegicus, UniProt P19327)
Sequence (P19327 whole entry): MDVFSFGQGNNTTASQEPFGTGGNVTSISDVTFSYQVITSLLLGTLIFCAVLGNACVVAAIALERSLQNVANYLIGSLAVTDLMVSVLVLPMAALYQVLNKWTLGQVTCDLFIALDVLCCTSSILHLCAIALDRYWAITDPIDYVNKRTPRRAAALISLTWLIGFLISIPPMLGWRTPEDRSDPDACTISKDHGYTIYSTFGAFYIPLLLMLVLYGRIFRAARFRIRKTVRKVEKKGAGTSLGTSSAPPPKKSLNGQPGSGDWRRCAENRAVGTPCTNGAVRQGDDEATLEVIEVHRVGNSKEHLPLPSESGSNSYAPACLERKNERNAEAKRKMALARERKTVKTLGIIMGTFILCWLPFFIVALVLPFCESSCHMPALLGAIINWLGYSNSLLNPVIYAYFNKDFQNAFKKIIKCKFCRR
Field note: include the unit after the figure.

stdin: May I ask what Ki has been recorded for Cc1ccc2c(c1O)-c1cccc3c1[C@@H](C2)N(C)CC3 ?
stdout: 0.45 nM

stdin: May I ask what Ki has been recorded for CN1CCc2cccc3c2[C@H]1Cc1cccc(O)c1-3 ?
stdout: 9.6 nM

---

Biological target: 5-hydroxytryptamine receptor 1A (Rattus norvegicus)
Sequence (P19327 whole entry): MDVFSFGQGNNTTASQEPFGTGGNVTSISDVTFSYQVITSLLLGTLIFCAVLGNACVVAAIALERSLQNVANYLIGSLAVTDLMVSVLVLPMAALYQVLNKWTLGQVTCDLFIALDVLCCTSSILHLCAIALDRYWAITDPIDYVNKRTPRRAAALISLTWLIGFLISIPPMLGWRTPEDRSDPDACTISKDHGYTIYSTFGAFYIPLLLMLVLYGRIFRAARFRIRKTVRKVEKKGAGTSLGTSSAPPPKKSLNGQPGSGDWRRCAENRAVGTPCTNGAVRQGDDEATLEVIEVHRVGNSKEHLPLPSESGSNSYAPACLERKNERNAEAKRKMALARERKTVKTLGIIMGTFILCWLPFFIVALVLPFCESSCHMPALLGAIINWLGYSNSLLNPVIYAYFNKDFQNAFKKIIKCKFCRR
Assay: Ability to inhibit 5-HT sensitive,forskolin-stimulated adenylyl cyclase(FSC) activity in rat hippocampal membranes mediated through 5-hydroxytryptamine 1A receptor
Type: functional, cell membranes
Please provide measured EC50 for the entries that follow.
Please respond with the number in nM and leave the unit unwritten.

stdin: Short answer please: EC50, 5-hydroxytryptamine receptor 1A (Rattus norvegicus), entry CN1CCc2cccc3c2[C@H]1Cc1cccc(O)c1-3
stdout: 5200

stdin: Short answer please: EC50, 5-hydroxytryptamine receptor 1A (Rattus norvegicus), entry Cc1ccc2c(c1O)-c1cccc3c1[C@@H](C2)N(C)CC3
stdout: 55
